Can you tell me inhibition at 1 µM for the items I'm about to list?
Target: UniProt P17612
Assay: Kinase panel profiling at 1 µmol/L (MSA or IMAP), percentage inhibition
Type: biochemical
Details: kinase PKACα; 1 µmol/L single concentration; read-out: %-inhibition at 1 µmol/L, PKACα
One number for each entry, in %.

MOLECULE	inhibition at 1 µM, %
Cc1cc(Nc2ncnc3ccc(NC4=NC(C)(C)CO4)cc23)ccc1Oc1ccn2ncnc2c1 [tucatinib]	-20
O=C(Nc1cnn2ccc(N3CCC[C@@H]3c3cc(F)ccc3F)nc12)N1CC[C@H](O)C1 [larotrectinib]	-20
C[C@H](Nc1ncnc2nc[nH]c12)c1cc2cccc(Cl)c2c(=O)n1-c1ccccc1 [duvelisib]	-7.56
Cn1cnc2c(F)c(Nc3ccc(Br)cc3Cl)c(C(=O)NOCCO)cc21 [selumetinib]	-28
C[C@H]1Oc2cc(cnc2N)-c2c(nn(C)c2C#N)CN(C)C(=O)c2ccc(F)cc21 [lorlatinib]	-8

Give one value of inhibition at 1 µM per listed molecule.
1. Cc1nc(NC(=O)N2CCC[C@H]2C(N)=O)sc1-c1ccnc(C(C)(C)C(F)(F)F)c1 [alpelisib]
2. CCN1CCN(c2ccc(Nc3cc(N(C)C(=O)Nc4c(Cl)c(OC)cc(OC)c4Cl)ncn3)cc2)CC1 [infigratinib]

Response:
1: -13; 2: -28

Request: Please list inhibition at 1 µM recorded for the molecule COC(=O)N[C@@H](C)CNc1nccc(-c2cn(C(C)C)nc2-c2cc(Cl)cc(NS(C)(=O)=O)c2F)n1 [encorafenib]
Response: -10
